System: Escherichia coli K-12 BW25113;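 also: Wild-type cells incubated without shaking, value is the mean of two biological replicates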
ASSAY_NAME: relative growth (OD600 normalised to plate interquartile mean) (fraction); higher = less growth inhibition, active = 0.2 or less
CONDITION_DESCRIPTION: 50 µM; LB; incubation time: overnight (16-24 h)
Among all 39,000 compounds or so, about 220 (0.56%) showed activity. The list comes from a sample in which actives are over-represented; it also holds close analogues and randomly drawn compounds.
Each entry below carries its reported relative growth.
MEASUREMENT_KIND: relative growth

{"COMPOUND": "CN(C)CC(=O)N[C@@H]1C=C[C@H](CC(=O)O)O[C@H]1CO", "TARGET_OF_ASSAY": "Escherichia coli K-12 BW25113", "MEASUREMENT_KIND": "relative growth", "RECORDED_NUMBER": 0.997}
{"COMPOUND": "Cc1cc(C(C)(C)CC(C)(C)C)ccc1OCCOCC[N+](C)(C)Cc1ccccc1.[Cl-]", "TARGET_OF_ASSAY": "Escherichia coli K-12 BW25113", "MEASUREMENT_KIND": "relative growth", "RECORDED_NUMBER": 0.0463}
{"COMPOUND": "Cc1noc(C)c1S(=O)(=O)Nc1ccc2c(c1)CC(=O)N([C@H](C)CO)C[C@@H](C)[C@H](CN(C)Cc1ccncc1)O2", "TARGET_OF_ASSAY": "Escherichia coli K-12 BW25113", "MEASUREMENT_KIND": "relative growth", "RECORDED_NUMBER": 0.995}
{"COMPOUND": "Cc1ccc(S(=O)(=O)N(C)C[C@@H]2Oc3c(NC(=O)Nc4cccc5ccccc45)cccc3C(=O)N([C@H](C)CO)C[C@@H]2C)cc1", "TARGET_OF_ASSAY": "Escherichia coli K-12 BW25113", "MEASUREMENT_KIND": "relative growth", "RECORDED_NUMBER": 1}
{"COMPOUND": "CCn1cc(C(=O)O)c(=O)c2cc(F)c(N3CCNC(C)C3)c(F)c21.Cl (configuration not stated)", "TARGET_OF_ASSAY": "Escherichia coli K-12 BW25113", "MEASUREMENT_KIND": "relative growth", "RECORDED_NUMBER": 0.0478}
{"COMPOUND": "C[C@@H]1CN([C@H](C)CO)C(=O)c2cccc(NS(=O)(=O)c3cn(C)cn3)c2O[C@@H]1CN(C)CC1CCCCC1", "TARGET_OF_ASSAY": "Escherichia coli K-12 BW25113", "MEASUREMENT_KIND": "relative growth", "RECORDED_NUMBER": 0.98}
{"COMPOUND": "C[C@@H]1CCCCO[C@H](CN(C)S(=O)(=O)c2cn(C)cn2)[C@H](C)CN([C@H](C)CO)C(=O)c2cc(NS(C)(=O)=O)ccc2O1", "TARGET_OF_ASSAY": "Escherichia coli K-12 BW25113", "MEASUREMENT_KIND": "relative growth", "RECORDED_NUMBER": 1.02}
{"COMPOUND": "COc1c(N2CC3CCCNC3C2)c(F)cc2c(=O)c(C(=O)O)cn(C3CC3)c12.Cl (configuration not stated)", "TARGET_OF_ASSAY": "Escherichia coli K-12 BW25113", "MEASUREMENT_KIND": "relative growth", "RECORDED_NUMBER": 0.0459}
{"COMPOUND": "COCCNC(=O)C[C@H]1CC[C@H]2[C@@H](COC[C@@H](O)CN2C(=O)Nc2ccccc2OC)O1", "TARGET_OF_ASSAY": "Escherichia coli K-12 BW25113", "MEASUREMENT_KIND": "relative growth", "RECORDED_NUMBER": 0.949}
{"COMPOUND": "O=P(O)(O)CN(CCN(CP(=O)(O)O)CP(=O)(O)O)CP(=O)(O)O", "TARGET_OF_ASSAY": "Escherichia coli K-12 BW25113", "MEASUREMENT_KIND": "relative growth", "RECORDED_NUMBER": 0.926}
{"COMPOUND": "Cc1ccc(S(=O)(=O)Nc2ccc3c(c2)C(=O)N([C@@H](C)CO)C[C@H](C)[C@H](CN(C)S(C)(=O)=O)OCCCC[C@@H](C)O3)cc1", "TARGET_OF_ASSAY": "Escherichia coli K-12 BW25113", "MEASUREMENT_KIND": "relative growth", "RECORDED_NUMBER": 1}
{"COMPOUND": "C[N+](C)(CCOc1ccccc1)Cc1ccccc1.O=C([O-])c1cc2ccccc2cc1O", "TARGET_OF_ASSAY": "Escherichia coli K-12 BW25113", "MEASUREMENT_KIND": "relative growth", "RECORDED_NUMBER": 0.93}
{"COMPOUND": "CC1CCc2cc(F)cc3c(=O)c(C(=O)O)cn1c23 (configuration not stated)", "TARGET_OF_ASSAY": "Escherichia coli K-12 BW25113", "MEASUREMENT_KIND": "relative growth", "RECORDED_NUMBER": 0.0455}
{"COMPOUND": "CC(C)(C)CC(C)(C)c1ccc(OCCOCC[N+](C)(C)Cc2ccccc2)cc1.[Cl-]", "TARGET_OF_ASSAY": "Escherichia coli K-12 BW25113", "MEASUREMENT_KIND": "relative growth", "RECORDED_NUMBER": 0.0469}
{"COMPOUND": "CCOc1ccc2c(c1)-c1c(ssc1=S)C(C)(C)N2C", "TARGET_OF_ASSAY": "Escherichia coli K-12 BW25113", "MEASUREMENT_KIND": "relative growth", "RECORDED_NUMBER": 0.993}
{"COMPOUND": "CC1CCc2c(N3CCC(O)CC3)c(F)cc3c(=O)c(C(=O)O)cn1c23 (configuration not stated)", "TARGET_OF_ASSAY": "Escherichia coli K-12 BW25113", "MEASUREMENT_KIND": "relative growth", "RECORDED_NUMBER": 0.0484}
{"COMPOUND": "C[C@@H]1CCCCO[C@H](CN(C)Cc2ccccc2)[C@@H](C)CN([C@@H](C)CO)C(=O)c2cc(NS(=O)(=O)c3ccc(Cl)cc3)ccc2O1", "TARGET_OF_ASSAY": "Escherichia coli K-12 BW25113", "MEASUREMENT_KIND": "relative growth", "RECORDED_NUMBER": 0.981}
